Consider the following molecules and their measured pIC50 readings.
Molecular target: CXCR-4 transfected U87 cell line (U87.CXCR4) (Homo sapiens)
Sequence (P61073 whole entry): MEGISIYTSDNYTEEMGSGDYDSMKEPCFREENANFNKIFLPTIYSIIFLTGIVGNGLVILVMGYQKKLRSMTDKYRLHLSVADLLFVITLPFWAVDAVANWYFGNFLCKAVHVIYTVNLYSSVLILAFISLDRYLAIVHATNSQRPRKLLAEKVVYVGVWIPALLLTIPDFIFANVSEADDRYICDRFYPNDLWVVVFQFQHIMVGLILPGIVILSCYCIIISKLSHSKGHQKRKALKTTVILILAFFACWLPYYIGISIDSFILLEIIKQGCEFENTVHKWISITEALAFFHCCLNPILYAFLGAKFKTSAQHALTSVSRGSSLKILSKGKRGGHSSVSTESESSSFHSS
Test: Intracellular CXCL-12-induced calcium mobilization assay (FLIPR)
Settings: U87.CXCR4 cells; CXCL-12 25-50 ng/mL; compound added 15 min before; read-out: IC50 CXCL-12 Ca^2+ flux U87.CXCR4+
pIC50: −log10 of the molar value.

As a guide, the following entries are already answered.
- Cc1cccnc1[C@@H]1CCC[C@H](c2nc3ccccc3n2CCn2ccnc2)N1C: 6.00 to 7.00
- Cc1cccnc1[C@@H]1C[C@H](O)C[C@H](c2nc3cccc(N4CCN(C)CC4)c3[nH]2)N1C: 7.00 to 11.00
- Cc1cccnc1[C@@H]1CCC[C@H](c2nc3cccc(OC4CCN(C)CC4)c3[nH]2)N1C: 7.00 to 11.00
- Cc1cccnc1[C@@H]1CCC[C@H](c2nc3cccc(N4CC5CC4CN5C)c3[nH]2)N1C (some centres unmarked): 6.00 to 7.00

Lab note: Cc1cccnc1[C@@H]1CCC[C@H](c2nc3cccc(N4C5CCC4CNC5)c3[nH]2)N1C gave pIC50 of 7.00 to 11.00
